Reference for the values: paper PMC6328252

# system: PA1618 (Pseudomonas aeruginosa)
# Sequence (Q9I3A4 whole entry): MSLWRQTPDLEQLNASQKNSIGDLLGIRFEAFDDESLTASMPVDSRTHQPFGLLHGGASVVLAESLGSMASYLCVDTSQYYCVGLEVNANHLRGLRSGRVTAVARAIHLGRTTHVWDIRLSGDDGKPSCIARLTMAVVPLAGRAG
# test_details: X-ray crystal structure
# Format: biochemical

>  <compound>
CC(C)(COP(=O)(O)OP(=O)(O)OC[C@H]1O[C@@H](n2cnc3c(N)ncnc32)[C@H](O)[C@@H]1OP(=O)(O)O)[C@@H](O)C(=O)NCCC(=O)NCCSCC(=O)c1ccccc1 [Phenacyl-CoA]

>  <Ki>
35 µM

$$$$

---

# system: PA1618 (Pseudomonas aeruginosa)
# test_details: X-ray crystal structure
# Type: biochemical
pKi: −log10 of the molar value.

>  <chemical_structure>
CC(C)(COP(=O)(O)OP(=O)(O)OC[C@H]1O[C@@H](n2cnc3c(N)ncnc32)[C@H](O)[C@@H]1O)[C@@H](O)C(=O)NCCC(=O)NCCOC(=O)c1ccccc1

>  <pKi>
4.72

$$$$
